# key: entry, value: PI3Kγ activity, pIC50
- Study system: recombinant human PI3Kγ (aa144-1102)-6His (Homo sapiens (Human), UniProt P48736)
- Sequence (P48736 144-1102): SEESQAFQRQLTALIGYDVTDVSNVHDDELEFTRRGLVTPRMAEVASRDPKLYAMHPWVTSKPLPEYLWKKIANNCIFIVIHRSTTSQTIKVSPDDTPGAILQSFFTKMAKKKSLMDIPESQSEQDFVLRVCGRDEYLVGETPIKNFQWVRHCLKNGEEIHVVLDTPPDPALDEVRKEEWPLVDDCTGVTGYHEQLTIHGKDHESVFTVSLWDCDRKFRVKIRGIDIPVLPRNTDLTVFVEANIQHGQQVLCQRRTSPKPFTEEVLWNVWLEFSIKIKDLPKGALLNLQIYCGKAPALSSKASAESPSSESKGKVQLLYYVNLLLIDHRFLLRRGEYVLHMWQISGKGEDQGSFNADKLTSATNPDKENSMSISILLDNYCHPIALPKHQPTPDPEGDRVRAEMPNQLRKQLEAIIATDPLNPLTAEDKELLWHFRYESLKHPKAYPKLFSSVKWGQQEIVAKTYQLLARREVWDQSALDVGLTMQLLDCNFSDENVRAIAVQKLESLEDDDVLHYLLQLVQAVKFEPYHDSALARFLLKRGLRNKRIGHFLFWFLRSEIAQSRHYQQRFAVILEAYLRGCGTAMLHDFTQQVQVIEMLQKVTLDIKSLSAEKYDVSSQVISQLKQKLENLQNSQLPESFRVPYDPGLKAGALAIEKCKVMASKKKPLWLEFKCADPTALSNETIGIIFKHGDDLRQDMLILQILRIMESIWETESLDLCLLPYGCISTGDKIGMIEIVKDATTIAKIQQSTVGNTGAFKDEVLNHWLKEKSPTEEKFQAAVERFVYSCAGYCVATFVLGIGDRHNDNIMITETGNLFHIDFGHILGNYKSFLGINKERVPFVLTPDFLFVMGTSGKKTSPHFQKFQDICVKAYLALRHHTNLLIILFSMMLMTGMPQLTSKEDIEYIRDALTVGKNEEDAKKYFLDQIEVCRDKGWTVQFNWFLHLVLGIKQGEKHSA
- Experimental details: Test A: Enzymatic Activity Assay for Rec Human PI3Kγ (ADP-Glo)
- Type: biochemical
- Run parameters: 20 μM ATP, 80 μM DiC8-PIP2, 1.2 nM PI3Kγ, 15 min pre-incubation, 60 min reaction
Recorded endpoint: PI3Kγ activity, pIC50

>>> reported_value("CNS(=O)(=O)c1cc(-c2sc(NC(C)=O)nc2C)cc2c1C(=O)N(C(C)C)C2")
8.8
>>> reported_value("CC(=O)Nc1ncc(-c2cc3c(c(S(C)(=O)=O)c2)C(=O)N([C@@H](C)C2CC2)C3)s1")
9.0
>>> reported_value("CNS(=O)(=O)c1cc(-c2sc(NC(C)=O)nc2C)cc2c1C(=O)N([C@@H](C)C(F)(F)F)C2")
9.0
>>> reported_value("CC(=O)Nc1nc(C)c(-c2cc3c(c(S(=O)(=O)NC4CC(F)(F)C4)c2)C(=O)N([C@@H](C)C2CC2)C3)s1")
8.9

* * *

- Study system: recombinant human PI3Kγ (aa144-1102)-6His (Homo sapiens (Human), UniProt P48736)
- Experimental details: Test A: Enzymatic Activity Assay for Rec Human PI3Kγ (ADP-Glo)
- Format: biochemical
- Run parameters: 20 μM ATP, 80 μM DiC8-PIP2, 1.2 nM PI3Kγ, 15 min pre-incubation, 60 min reaction
Recorded endpoint: PI3Kγ activity, pIC50

>>> reported_value("CC(=O)Nc1nc(C)c(-c2cc3c(c(S(=O)(=O)NC4CCC4)c2)C(=O)N([C@@H](C)C2CC2)C3)s1 [Example 10]")
8.9
>>> reported_value("CNS(=O)(=O)c1cc(-c2sc(NC(C)=O)nc2C)cc2c1C(=O)N(C(C)(C)C)C2 [Example 34]")
8.8
>>> reported_value("CC(=O)Nc1nc(C)c(-c2cc3c(c(NS(=O)(=O)C4CC4)c2)C(=O)N([C@@H](C)C2CC2)C3)s1 [Example 23]")
9.2
>>> reported_value("CC(=O)Nc1nc(C)c(-c2cc3c(c(S(=O)(=O)NCC4CC4)c2)C(=O)N([C@@H](C)C2CC2)C3)s1 [Example 13]")
9.0

The reported numbers originate from patent US10858355B2.
